Assay: Mouse PK studies, single i.v. and p.o. dose
Type: in vivo, CD1 mice
Details: male, CD1, mouse, 10 mg/kg; PO 10 mpk, plasma
recorded-metric: MRT inf

Requested read-out: MRT inf. Entry: C=CC(=O)N1CCN(c2nc(OC[C@@H]3CCCN3C)nc3c2CC[C@@]2(CCc4c(Cl)cccc42)C3)C[C@@H]1CC#N [Cpd. No. 53]
3.26 h

----------
Test: Mouse PK studies, single i.v. and p.o. dose
Format: in vivo, CD1 mice
Settings: male, CD1, mouse, 2 mg/kg; IV 2 mpk, plasma, terminal half-life
recorded-metric: half-life (h)
A number alone suffices; assume h.

Requested read-out: half-life. Entry: C=CC(=O)N1CCN(c2nc(OC[C@@H]3CCCN3C)nc3c2CC[C@@]2(CCc4c(Cl)cccc42)C3)C[C@@H]1CC#N [Cpd. No. 53]
1.45

----------
Experiment: Mouse PK studies, single i.v. and p.o. dose
Format: in vivo, CD1 mice
Details: male, CD1, mouse, 10 mg/kg; PO 10 mpk, plasma
recorded-metric: AUC(0-t)
Remember to put the unit after the number in your answer.

Requested read-out: AUC(0-t). Entry: C=CC(=O)N1CCN(c2nc(OC[C@@H]3CCCN3C)nc3c2CC[C@@]2(CCc4c(Cl)cccc42)C3)C[C@@H]1CC#N
2650 ng·h/mL

----------
Assay: Mouse PK studies, single i.v. and p.o. dose
Format: in vivo, CD1 mice
Settings: male, CD1, mouse, 2 mg/kg; IV 2 mpk, plasma
recorded-metric: AUC(0-inf) (ng·h/mL)
A number alone suffices; assume ng·h/mL.

Requested read-out: AUC(0-inf). Entry: C=CC(=O)N1CCN(c2nc(OC[C@@H]3CCCN3C)nc3c2CC[C@@]2(CCc4c(Cl)cccc42)C3)C[C@@H]1CC#N [Cpd. No. 53]
1200

----------
Assay: Mouse PK studies, single i.v. and p.o. dose
Type: in vivo, CD1 mice
Details: male, CD1, mouse, 10 mg/kg; PO 10 mpk, plasma
recorded-metric: Cmax (ng/mL)
A number alone suffices; assume ng/mL.

Requested read-out: Cmax. Entry: C=CC(=O)N1CCN(c2nc(OC[C@@H]3CCCN3C)nc3c2CC[C@@]2(CCc4c(Cl)cccc42)C3)C[C@@H]1CC#N
856

----------
Assay: Mouse PK studies, single i.v. and p.o. dose
Type: in vivo, CD1 mice
Conditions: male, CD1, mouse, 10 mg/kg; PO 10 mpk, plasma
recorded-metric: AUC(0-inf) (ng·h/mL)
A number alone suffices; assume ng·h/mL.

Requested read-out: AUC(0-inf). Entry: C=CC(=O)N1CCN(c2nc(OC[C@@H]3CCCN3C)nc3c2CC[C@@]2(CCc4c(Cl)cccc42)C3)C[C@@H]1CC#N
2900

----------
Test: Mouse PK studies, single i.v. and p.o. dose
Assay type: in vivo, CD1 mice
Details: male, CD1, mouse, plasma, 10 mg/kg; PO 10 mpk vs IV 2 mpk
recorded-metric: bioavailability (%)
A number alone suffices; assume %.

Requested read-out: bioavailability. Entry: C=CC(=O)N1CCN(c2nc(OC[C@@H]3CCCN3C)nc3c2CC[C@@]2(CCc4c(Cl)cccc42)C3)C[C@@H]1CC#N [Cpd. No. 53]
48.2

----------
Assay: Mouse PK studies, single i.v. and p.o. dose
Format: in vivo, CD1 mice
Settings: male, CD1, mouse, 2 mg/kg; IV 2 mpk, plasma
recorded-metric: AUC(0-t) (ng·h/mL)
A number alone suffices; assume ng·h/mL.

Requested read-out: AUC(0-t). Entry: C=CC(=O)N1CCN(c2nc(OC[C@@H]3CCCN3C)nc3c2CC[C@@]2(CCc4c(Cl)cccc42)C3)C[C@@H]1CC#N
1200
